Just for reference, patent EP3478687B1 is where these values come from.

Answer each item with its documented pIC50.
Molecular target: Recombinant purified human JAK3 (Homo sapiens)
Sequence (P52333 whole entry): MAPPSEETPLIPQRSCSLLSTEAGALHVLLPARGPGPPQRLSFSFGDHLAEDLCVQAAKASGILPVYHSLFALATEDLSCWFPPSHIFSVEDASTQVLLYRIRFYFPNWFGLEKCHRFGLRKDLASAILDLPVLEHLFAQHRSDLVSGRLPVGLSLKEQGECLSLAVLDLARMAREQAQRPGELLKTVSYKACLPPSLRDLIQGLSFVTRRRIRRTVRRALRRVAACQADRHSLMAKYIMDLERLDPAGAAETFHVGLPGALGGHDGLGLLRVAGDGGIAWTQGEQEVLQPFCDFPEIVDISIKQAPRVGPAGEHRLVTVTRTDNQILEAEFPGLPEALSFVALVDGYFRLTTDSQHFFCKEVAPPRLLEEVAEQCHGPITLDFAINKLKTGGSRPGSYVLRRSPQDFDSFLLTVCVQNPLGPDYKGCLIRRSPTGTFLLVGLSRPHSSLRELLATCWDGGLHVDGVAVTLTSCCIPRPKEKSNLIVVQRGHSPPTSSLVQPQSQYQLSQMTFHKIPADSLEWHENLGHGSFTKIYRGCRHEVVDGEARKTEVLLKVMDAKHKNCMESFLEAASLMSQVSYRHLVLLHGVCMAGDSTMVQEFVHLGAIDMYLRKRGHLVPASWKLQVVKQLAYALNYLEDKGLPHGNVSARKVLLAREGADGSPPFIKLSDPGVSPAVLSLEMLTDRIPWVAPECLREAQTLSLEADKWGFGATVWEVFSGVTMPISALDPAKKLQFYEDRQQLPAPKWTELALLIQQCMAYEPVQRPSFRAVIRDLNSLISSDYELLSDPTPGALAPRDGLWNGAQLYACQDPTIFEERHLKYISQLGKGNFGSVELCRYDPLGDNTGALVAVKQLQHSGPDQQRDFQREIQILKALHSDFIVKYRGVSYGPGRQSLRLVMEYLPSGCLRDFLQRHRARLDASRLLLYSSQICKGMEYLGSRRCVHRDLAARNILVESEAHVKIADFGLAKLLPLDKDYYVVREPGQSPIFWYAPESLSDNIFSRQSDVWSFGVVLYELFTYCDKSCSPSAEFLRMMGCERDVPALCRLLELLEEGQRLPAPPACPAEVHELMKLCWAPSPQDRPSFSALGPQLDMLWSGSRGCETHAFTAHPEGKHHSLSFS
Experiment: JAK3 kinase inhibitory activity, ADP-Glo kinase assay (Promega V9441)
Conditions: ATP 5 uM, 4 ng JAK3 per reaction, 1 hour 30 °C, chemiluminescence
Please treat pIC50 as minus the base-10 logarithm of the molar concentration.

Ask: // pIC50 lookup, key: C=CC(=O)N1CCC[C@@H](Nc2nc(Nc3cnn(CC(=O)NC)c3)nc3[nH]cc(Cl)c23)C1 [Example 60]
Reply: 9.70

Ask: Same again, this time with C=CC(=O)N1CCC[C@@H](Nc2nc(Nc3ccc(N4CCN(C)CC4)cc3)nc3[nH]ccc23)C1 [Example 1]
Reply: 8.43

Ask: Same again, this time with C=CC(=O)N1CCC[C@@H](Nc2nc(Nc3cnn(C(F)F)c3)nc3[nH]cc(Cl)c23)C1 [Example 38]
Reply: 10.00

Ask: Same again, this time with C=CC(=O)N1CCC[C@@H](N(C)c2nc(Nc3cnoc3)nc3[nH]nc(Cl)c23)C1 [Example 119]
Reply: 7.49

Ask: Same again, this time with C=CC(=O)N1CCC[C@@H](Nc2nc(Nc3cnn(Cc4cccc(OC)c4)c3)nc3[nH]ccc23)C1 [Example 20]
Reply: 9.15

Ask: Same again, this time with C=CC(=O)N1CCC[C@@H](Nc2nc(Nc3cnn(CC)c3)nc3[nH]cc(Cl)c23)C1 [Example 37]
Reply: 10.00

Ask: Same again, this time with CCn1cc(Nc2nc(S[C@@H]3CCCN(C(=O)/C(C#N)=C/C4CC4)C3)c3cc[nH]c3n2)cn1 [Example 173]
Reply: 9.00

Ask: Same again, this time with C=CC(=O)N1CCC[C@@H](Nc2nc(Nc3cnn(C)c3)nc3[nH]cc(Cl)c23)C1 [Example 69]
Reply: 9.52

Ask: Same again, this time with C=CC(=O)N1CCC[C@@H](Nc2nc(Nc3ccc(N4CCOCC4)cc3)nc3[nH]cc(Cl)c23)C1 [Example 61]
Reply: 8.96

Ask: Same again, this time with N#C/C(=C\C1CC1)C(=O)N1CCC[C@@H](Oc2nc(Nc3cnn(C4CC4)c3)nc3[nH]nc(Cl)c23)C1 [Example 154]
Reply: 7.27

Ask: Same again, this time with C=CC(=O)N1CCC[C@@H](Nc2nc(Nc3cnn(CC(F)F)c3)nc3[nH]ccc23)C1 [Example 15]
Reply: 9.52

Ask: Same again, this time with C=CC(=O)N1CC[C@@H](C)[C@@H](Nc2nc(Nc3cnn(CCN(CC)CC)c3)nc3[nH]nc(Cl)c23)C1 [Example 122]
Reply: 8.09

Ask: Same again, this time with C=CC(=O)N1CCC[C@@H](Nc2nc(Nc3cnn(CC(C)C)c3)nc3[nH]cc(Cl)c23)C1 [Example 63]
Reply: 9.52

Ask: Same again, this time with C=CC(=O)N1CCC[C@@H](Oc2nc(Nc3cnn(CC)c3)nc3[nH]cc(C#N)c23)C1 [Example 150]
Reply: 9.52

Ask: Same again, this time with C=CC(=O)N1CCC[C@@H](Nc2nc(Nc3cnn(CCOC)c3)nc3[nH]ccc23)C1 [Example 17]
Reply: 9.22

###

Target: Recombinant purified human BTK (Homo sapiens, UniProt Q06187)
Construct: purchased Promega V9071
Sequence (Q06187 whole entry): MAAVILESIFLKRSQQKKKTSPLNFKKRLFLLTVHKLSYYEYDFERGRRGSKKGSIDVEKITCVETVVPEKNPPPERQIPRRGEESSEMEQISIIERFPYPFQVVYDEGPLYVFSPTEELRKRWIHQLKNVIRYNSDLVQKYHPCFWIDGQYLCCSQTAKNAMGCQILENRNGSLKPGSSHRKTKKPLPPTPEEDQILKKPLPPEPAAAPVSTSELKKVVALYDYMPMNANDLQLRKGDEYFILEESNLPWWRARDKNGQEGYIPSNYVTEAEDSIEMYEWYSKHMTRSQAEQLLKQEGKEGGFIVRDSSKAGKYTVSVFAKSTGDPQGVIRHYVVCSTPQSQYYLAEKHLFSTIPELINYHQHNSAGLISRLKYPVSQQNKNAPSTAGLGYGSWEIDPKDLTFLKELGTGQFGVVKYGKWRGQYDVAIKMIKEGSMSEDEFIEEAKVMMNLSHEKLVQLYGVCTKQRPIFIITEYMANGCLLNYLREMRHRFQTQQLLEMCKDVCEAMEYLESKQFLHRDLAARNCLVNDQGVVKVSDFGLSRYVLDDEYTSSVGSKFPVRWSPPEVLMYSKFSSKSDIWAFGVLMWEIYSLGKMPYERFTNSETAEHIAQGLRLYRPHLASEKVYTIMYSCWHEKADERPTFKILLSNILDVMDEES
Assay: BTK kinase inhibitory activity, ADP-Glo kinase assay (Promega V9071)
Assay type: biochemical
Conditions: @100nM compound
Each entry gets f if its inhibition at 0.1 µM stays under 30%, and t if its inhibition at 0.1 µM is 30% or above.

Ask: Threshold query (inhibition at 0.1 µM >= 30%) on CC#CC(=O)N1CCC[C@@H](Nc2nc(Nc3cnn(CC(F)F)c3)nc3[nH]ccc23)C1 [Example 25]
Reply: t

Ask: Same again, this time with C=CC(=O)N1CCC[C@@H](Nc2nc(Nc3cn(C)nc3C)nc3[nH]ccc23)C1 [Example 22]
Reply: f

Ask: Same again, this time with C=CC(=O)Nc1cccc(Nc2nc(N[C@@H]3CCCN(C(=O)CC#N)C3)c3cc[nH]c3n2)c1 [Example 26]
Reply: f

Ask: Same again, this time with C=CC(=O)N1CCC[C@@H](Nc2nc(Nc3cccc(-n4nc(C)cc4C)c3)nc3[nH]ccc23)C1 [Example 10]
Reply: f

Ask: Same again, this time with C=CC(=O)N1CCC[C@H](Nc2nc(Nc3ccc(N4CCN(C)CC4)cc3)nc3[nH]ccc23)C1 [Example 11]
Reply: f
